Target: LRRK2 Ser935 phosphorylation in SH-SY5Y cells over-expressing recombinant full length LRRK2 (Homo sapiens (Human), UniProt Q5S007)
Sequence (Q5S007 whole entry): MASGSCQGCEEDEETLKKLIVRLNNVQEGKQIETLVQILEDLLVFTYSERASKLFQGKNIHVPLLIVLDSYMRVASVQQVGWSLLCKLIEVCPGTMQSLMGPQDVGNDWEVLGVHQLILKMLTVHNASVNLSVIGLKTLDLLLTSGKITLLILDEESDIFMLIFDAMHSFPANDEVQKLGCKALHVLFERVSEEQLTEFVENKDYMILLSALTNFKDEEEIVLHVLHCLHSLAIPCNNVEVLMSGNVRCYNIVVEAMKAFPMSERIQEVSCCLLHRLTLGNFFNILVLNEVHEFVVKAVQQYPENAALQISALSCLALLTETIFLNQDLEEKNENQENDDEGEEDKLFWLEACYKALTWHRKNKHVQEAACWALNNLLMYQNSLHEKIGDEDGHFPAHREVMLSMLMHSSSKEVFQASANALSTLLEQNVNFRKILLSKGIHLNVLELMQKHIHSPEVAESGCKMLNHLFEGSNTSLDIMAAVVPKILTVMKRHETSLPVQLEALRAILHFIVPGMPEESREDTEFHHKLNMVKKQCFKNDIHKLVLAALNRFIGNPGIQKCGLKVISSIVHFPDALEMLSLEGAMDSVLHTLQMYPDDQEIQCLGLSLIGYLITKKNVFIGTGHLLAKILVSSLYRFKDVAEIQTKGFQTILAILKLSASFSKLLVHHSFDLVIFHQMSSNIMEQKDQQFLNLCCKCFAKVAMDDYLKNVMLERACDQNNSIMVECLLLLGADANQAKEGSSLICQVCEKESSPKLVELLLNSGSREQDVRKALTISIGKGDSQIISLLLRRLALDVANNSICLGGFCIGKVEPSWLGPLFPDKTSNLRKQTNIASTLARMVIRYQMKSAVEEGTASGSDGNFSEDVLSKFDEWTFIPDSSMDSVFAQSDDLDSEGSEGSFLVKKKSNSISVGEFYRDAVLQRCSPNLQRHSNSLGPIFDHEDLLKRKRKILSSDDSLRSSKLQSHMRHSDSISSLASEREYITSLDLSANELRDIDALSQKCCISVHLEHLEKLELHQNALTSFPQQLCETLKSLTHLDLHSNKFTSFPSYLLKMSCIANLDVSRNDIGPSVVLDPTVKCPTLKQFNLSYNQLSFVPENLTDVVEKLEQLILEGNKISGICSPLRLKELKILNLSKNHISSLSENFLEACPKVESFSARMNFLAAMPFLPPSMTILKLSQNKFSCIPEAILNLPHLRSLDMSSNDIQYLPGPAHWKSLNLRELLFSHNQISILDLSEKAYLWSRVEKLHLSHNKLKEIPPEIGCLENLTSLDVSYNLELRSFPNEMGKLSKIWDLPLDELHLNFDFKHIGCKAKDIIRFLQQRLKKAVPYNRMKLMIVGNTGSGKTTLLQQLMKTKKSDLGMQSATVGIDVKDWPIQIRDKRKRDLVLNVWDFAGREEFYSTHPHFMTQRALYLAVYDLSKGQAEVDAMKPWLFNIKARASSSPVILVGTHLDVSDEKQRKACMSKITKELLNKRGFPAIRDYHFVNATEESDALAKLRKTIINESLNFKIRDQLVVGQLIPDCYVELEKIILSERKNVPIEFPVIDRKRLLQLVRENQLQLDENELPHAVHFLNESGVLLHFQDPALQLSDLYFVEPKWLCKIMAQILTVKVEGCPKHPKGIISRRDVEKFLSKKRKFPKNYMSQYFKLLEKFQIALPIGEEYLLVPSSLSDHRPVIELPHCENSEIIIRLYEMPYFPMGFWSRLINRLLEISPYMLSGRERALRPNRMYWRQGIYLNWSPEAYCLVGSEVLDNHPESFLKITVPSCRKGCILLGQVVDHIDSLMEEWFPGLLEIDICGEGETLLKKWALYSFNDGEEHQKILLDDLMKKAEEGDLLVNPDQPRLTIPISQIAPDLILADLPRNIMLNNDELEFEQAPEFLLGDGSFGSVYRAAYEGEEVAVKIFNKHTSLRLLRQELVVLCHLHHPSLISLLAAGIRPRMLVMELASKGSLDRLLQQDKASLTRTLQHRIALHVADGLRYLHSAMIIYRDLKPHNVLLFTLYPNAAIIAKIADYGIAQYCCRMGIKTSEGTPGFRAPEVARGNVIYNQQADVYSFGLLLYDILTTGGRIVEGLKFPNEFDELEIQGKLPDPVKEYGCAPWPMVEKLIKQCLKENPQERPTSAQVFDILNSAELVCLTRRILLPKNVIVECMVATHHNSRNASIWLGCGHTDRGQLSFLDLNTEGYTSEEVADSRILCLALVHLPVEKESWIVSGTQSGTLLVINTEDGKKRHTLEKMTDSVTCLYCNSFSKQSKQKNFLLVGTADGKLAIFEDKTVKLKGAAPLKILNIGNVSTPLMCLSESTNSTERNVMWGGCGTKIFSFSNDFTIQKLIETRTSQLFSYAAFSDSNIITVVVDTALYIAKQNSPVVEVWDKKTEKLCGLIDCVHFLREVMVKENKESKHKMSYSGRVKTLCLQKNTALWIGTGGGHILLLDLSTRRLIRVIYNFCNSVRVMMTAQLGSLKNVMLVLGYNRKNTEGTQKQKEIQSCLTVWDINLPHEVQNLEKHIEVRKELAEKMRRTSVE
Test: Recombinant cellular LRRK2 AlphaScreen assay
Assay type: cell-based
Conditions: 60 minutes, read-out: Recombinant cellular LRRK2 alphaScreen assay (pIC50) (converted)
Description: To determine the activity of compounds against LRRK2 kinase activity in cells, the observed LRRK2 kinase-dependent modulation of LRRK2 Ser 935 phosphorylation (Dzamko et al., 2010, Biochem. J. 430: 405-413) was utilized to develop a quantitative 384 well plate-based immunoassay of LRRK2 Ser935 phosphorylation in the human neuroblastoma cell line SH-SY5Y, engineered to over-express recombinant full length LRRK2 protein. […]
Below, each entry is listed with its recorded IC50.

Worked cases, answers included:
> print(dat)
                                   compound  reported.result
1  COc1nc(N2CC(O)C2)cc(-n2ncc3cc(C)c(C4CCN(C5COC5)CC4)cc32)n1 [Example E79]            10 nM
2  Cc1nc(N2CCO[C@@H](CO)C2)cc(-n2ncc3cc(C)c(C4CCCOC4)cc32)n1 (single isomer, unassigned) [Example E240]       > 10000 nM
3  Cc1nc(N2CC[C@H](O)C2)cc(-n2ncc3cc(C)c(C4CCN(C)CC4F)cc32)n1 (single isomer, unassigned) [Example E128]         ≤ 100 nM
4  Cc1nc(N2CC(O)C2)cc(-n2ncc3cc(C)c(C4CCOCC4)cc32)n1 [Example E89]         ≤ 100 nM
5  Cc1nc(N2CCO[C@@H](CO)C2)cc(-n2ncc3cc(C)c(C4CCOCC4F)cc32)n1 (single isomer, unassigned) [Example E250]         ≤ 100 nM
6  CCN1CC[C@H](c2cc3c(cnn3-c3cc(N4CC(O)C4)nc(C)n3)cc2C)[C@H](F)C1 (single isomer, unassigned) [Example E146]         ≤ 100 nM
7  COc1nc(N2CCOCC2)cc(-n2ncc3cc(C)c(C4CCN(C5COC5)CC4(F)F)cc32)n1 (single isomer, unassigned) [Example E22]          12.6 nM
8  CNC(=O)[C@H]1CN(c2cc(-n3ncc4cc(C)c(C5CCN(CCOC)CC5F)cc43)ncn2)CCO1 (single isomer, unassigned) [Example E29]         ≤ 100 nM

// fetch IC50 given entry CNC(=O)[C@@H]1CN(c2cc(-n3ncc4cc(C)c(C5CCN(C6COC6)CC5F)cc43)ncn2)CCO1 (single isomer, unassigned) [Example E34]
≤ 100 nM

In one line, give reported IC50 of the entry Cc1nc(N2CC(O)C2)cc(-n2ncc3cc(C)c(C4CCN(C5COC5)CC4F)cc32)n1 (single isomer, unassigned) [Example E42] .
≤ 100 nM

====

target: Truncated G2019 human LRRK2 (1326-2527) (Homo sapiens (Human), UniProt Q5S007); assay: Truncated G2019 human LRRK2 (1326-2527) inhibition mass spectrometry assay; type: biochemical; conditions: 6HIS-Tev-LRRK2 (1326-2527), 25 uM LRRKtide, 20 uM ATP; read-out: Truncated G2019 human LRRK2 inhibition mass spectrometry assay (pIC50) (converted)
Sequence (Q5S007 1326-2527): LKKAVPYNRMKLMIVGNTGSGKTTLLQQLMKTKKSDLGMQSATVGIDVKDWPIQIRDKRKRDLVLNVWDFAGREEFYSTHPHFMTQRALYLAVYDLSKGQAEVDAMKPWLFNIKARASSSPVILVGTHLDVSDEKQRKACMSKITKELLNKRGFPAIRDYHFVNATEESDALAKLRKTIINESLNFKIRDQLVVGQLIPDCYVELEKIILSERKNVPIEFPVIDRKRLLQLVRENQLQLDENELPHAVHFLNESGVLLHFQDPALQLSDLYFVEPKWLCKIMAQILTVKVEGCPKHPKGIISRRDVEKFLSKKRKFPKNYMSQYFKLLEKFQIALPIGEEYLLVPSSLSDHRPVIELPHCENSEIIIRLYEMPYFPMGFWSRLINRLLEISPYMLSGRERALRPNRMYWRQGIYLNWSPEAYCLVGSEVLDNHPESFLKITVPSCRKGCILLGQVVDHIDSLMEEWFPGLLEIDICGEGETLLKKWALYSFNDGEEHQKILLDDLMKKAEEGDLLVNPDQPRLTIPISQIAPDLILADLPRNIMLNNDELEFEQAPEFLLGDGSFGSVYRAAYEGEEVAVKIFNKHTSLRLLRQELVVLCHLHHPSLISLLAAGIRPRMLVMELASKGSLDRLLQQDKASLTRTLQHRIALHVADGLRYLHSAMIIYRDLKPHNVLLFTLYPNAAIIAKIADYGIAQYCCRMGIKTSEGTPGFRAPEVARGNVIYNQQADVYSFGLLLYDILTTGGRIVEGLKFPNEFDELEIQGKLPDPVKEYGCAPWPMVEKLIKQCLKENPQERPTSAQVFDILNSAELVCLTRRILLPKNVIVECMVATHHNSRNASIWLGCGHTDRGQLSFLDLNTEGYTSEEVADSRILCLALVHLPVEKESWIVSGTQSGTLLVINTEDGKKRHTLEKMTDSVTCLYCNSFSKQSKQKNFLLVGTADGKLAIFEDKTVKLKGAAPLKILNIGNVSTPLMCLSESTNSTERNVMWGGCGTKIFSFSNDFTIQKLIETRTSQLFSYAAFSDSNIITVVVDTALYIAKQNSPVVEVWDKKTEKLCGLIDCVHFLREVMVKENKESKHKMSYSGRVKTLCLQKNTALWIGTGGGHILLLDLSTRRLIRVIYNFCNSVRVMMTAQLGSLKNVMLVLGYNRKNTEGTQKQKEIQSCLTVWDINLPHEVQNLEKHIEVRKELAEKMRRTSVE
Structures can show the parent of a compound that is named as a salt.
metric-name: IC50 (nM)

For orientation, consider the following solved cases.
> print(dat)
                                   molecule  metric.name  unit.abbreviation  reported.result
1  COc1nc(N2CCNCC2)cc(-n2ncc3cc(C)c(N4CCOCC4)cc32)n1 [Example E117]         IC50                 nM             25.1
2  COc1nc(N2CCOCC2)cc(-n2ncc3cc(C)c(C4CCN(C5COC5)CC4(F)F)cc32)n1 (single isomer, unassigned) [Example E22]         IC50                 nM             7.94
3  COc1nc(N2CCOCC2)cc(-n2ncc3cc(C)c([C@H]4CCNC[C@H]4F)cc32)n1 (single isomer, unassigned) [Example E62, hydrochloride]         IC50                 nM             7.94
4  COc1nc(N2CCOCC2)cc(-n2ncc3cc(C)c(C4CCN(C)CC4(F)F)cc32)n1 (single isomer, unassigned) [Example E4]         IC50                 nM             7.94

a: COc1nc(N2CC(O)C2)cc(-n2ncc3cc(C)c(C4CCN(C5COC5)CC4)cc32)n1 [Example E79]
b: COc1nc(N2CC(C#N)C2)cc(-n2ncc3cc(C)c(C4CCNCC4(F)F)cc32)n1 (single isomer, unassigned) [Example E66]
Between a and b , which one shows the larger IC50 value? Give the chosen item's label as your response.
b
(b: 31.6 nM, a: 12.6 nM)

Every entry's value here was drawn from patent US10975081B2.
